Measured pIC50, listed per entry.
target: Nitric oxide synthase, inducible (Homo sapiens, UniProt P35228); test: Inhibitory activity against Inducible nitric oxide synthase
Sequence (P35228 whole entry): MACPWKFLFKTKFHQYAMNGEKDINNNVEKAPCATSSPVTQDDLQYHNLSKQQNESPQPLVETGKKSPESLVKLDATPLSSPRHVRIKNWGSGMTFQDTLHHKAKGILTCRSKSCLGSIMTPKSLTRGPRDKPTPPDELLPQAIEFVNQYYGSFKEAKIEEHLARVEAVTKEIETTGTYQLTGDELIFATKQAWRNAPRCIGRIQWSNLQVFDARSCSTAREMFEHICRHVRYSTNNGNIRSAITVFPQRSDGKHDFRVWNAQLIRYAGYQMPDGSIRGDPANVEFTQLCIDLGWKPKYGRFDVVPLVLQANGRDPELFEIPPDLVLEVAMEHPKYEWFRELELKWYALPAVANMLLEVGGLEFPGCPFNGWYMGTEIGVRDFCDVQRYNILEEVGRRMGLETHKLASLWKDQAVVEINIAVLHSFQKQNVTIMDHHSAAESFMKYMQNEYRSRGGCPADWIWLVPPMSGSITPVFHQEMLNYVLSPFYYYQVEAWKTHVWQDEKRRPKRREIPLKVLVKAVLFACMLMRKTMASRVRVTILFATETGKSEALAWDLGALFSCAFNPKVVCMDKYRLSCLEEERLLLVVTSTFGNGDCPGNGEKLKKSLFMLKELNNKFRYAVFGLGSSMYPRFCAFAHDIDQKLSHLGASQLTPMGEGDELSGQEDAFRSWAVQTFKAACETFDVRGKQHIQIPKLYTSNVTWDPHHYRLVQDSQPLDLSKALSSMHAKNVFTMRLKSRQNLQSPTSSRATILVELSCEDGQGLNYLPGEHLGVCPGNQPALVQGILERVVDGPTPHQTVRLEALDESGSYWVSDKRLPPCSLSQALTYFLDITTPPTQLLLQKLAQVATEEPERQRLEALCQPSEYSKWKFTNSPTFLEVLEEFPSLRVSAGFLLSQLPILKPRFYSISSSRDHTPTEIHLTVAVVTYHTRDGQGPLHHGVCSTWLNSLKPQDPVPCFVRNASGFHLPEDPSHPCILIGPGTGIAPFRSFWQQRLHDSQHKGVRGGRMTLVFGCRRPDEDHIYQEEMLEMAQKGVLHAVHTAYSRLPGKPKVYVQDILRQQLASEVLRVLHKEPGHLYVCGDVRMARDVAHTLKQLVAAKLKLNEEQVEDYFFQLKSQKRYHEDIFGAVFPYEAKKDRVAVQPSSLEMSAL
On this scale, pIC50 is minus log10 of a concentration expressed in M (mol/L).

input: Hello, I am looking for reported pIC50 with Nitric oxide synthase, inducible (Homo sapiens, UniProt P35228) for `CN(CCc1ccccc1)Cn1c(=O)oc2ccc(Cl)cc21` . Could you help?
output: 4.80

input: # repeat for `Cc1ccc2nc(O)oc2n1`
output: 5.13

input: Same again, this time with `CN1CCN(Cn2c(=O)oc3ccc(Cl)cc32)CC1`
output: 5.92

* * *

The following compounds each carry a recorded pIC50 for Nitric oxide synthase 3 (Homo sapiens, UniProt P29474).
Just so you know, pIC50 here is -log10 of the concentration in molar units; reply with that number alone.

compound smiles	pIC50
CN1CCN(Cn2c(=O)oc3ccc(Cl)cc32)CC1	4.81
O=c1oc2ccc(Cl)cc2n1CN1CCCCC1	4.72
CN(CCc1ccccc1)Cn1c(=O)oc2ccc(Cl)cc21	4.80
CN(Cc1ccccc1)Cn1c(=O)oc2ccc(Cl)cc21	4.87

Here is another compound to look at.
input: What does the record list as pIC50 for `O=c1oc2ccc(Cl)cc2n1CN1CCOCC1` ?
output: 4.83

* * *

# IC50 measurements, system: Nitric oxide synthase 1 (Homo sapiens, UniProt P29475)
# Sequence (P29475 whole entry): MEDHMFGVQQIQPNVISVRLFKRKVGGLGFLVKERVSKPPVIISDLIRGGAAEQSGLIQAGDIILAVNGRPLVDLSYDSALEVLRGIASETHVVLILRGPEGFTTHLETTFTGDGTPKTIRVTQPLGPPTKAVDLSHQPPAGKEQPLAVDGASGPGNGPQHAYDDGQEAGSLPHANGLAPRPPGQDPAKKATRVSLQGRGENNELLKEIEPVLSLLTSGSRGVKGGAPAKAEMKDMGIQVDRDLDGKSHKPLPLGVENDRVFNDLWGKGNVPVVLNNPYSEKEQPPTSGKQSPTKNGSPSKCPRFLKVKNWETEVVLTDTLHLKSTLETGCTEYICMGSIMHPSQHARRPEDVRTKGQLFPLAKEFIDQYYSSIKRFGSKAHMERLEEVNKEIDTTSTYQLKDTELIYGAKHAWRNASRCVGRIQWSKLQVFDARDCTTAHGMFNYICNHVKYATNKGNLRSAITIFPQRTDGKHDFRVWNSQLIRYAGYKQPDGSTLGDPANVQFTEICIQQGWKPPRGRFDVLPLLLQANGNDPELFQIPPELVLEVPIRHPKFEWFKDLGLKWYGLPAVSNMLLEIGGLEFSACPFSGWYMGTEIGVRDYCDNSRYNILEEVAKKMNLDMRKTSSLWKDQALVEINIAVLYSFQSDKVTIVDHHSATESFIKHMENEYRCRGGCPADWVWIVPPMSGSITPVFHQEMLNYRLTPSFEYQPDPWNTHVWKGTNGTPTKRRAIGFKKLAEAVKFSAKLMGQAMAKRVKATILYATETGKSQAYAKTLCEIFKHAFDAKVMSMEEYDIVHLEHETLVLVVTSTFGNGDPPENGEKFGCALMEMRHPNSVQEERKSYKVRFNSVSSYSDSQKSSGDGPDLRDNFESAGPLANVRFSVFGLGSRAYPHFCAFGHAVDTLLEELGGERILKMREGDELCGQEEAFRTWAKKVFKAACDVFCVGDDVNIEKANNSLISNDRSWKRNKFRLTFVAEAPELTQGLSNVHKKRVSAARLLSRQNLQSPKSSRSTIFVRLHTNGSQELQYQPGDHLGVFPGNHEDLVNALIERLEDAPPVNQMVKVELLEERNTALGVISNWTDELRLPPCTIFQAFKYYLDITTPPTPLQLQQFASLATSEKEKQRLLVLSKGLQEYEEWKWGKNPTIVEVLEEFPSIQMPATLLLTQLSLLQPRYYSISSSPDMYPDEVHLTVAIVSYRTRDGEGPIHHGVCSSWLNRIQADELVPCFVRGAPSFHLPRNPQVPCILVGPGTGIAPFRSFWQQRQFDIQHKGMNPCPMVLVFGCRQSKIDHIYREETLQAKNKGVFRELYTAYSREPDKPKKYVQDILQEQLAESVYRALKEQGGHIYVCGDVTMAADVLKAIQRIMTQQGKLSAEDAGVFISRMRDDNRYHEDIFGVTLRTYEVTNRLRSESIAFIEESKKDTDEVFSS
Answer with a number only, understood to be in µM.

compound smiles	experimental target	IC50 (µM)
CN1CCN(Cn2c(=O)oc3ccc(Cl)cc32)CC1	Nitric oxide synthase 1 (Homo sapiens, UniProt P29475)	4.4
O=c1oc2ccc(Cl)cc2n1CN1CCOCC1	Nitric oxide synthase 1 (Homo sapiens, UniProt P29475)	5.6
CN(CCc1ccccc1)Cn1c(=O)oc2ccc(Cl)cc21	Nitric oxide synthase 1 (Homo sapiens, UniProt P29475)	68

Now consider the entry below.
input: Missing value: IC50, Nitric oxide synthase 1 (Homo sapiens, UniProt P29475), entry `CN(Cc1ccccc1)Cn1c(=O)oc2ccc(Cl)cc21` . Fill in?
output: 11.5

* * *

Target: UniProt:P29474
Sequence (P29474 whole entry): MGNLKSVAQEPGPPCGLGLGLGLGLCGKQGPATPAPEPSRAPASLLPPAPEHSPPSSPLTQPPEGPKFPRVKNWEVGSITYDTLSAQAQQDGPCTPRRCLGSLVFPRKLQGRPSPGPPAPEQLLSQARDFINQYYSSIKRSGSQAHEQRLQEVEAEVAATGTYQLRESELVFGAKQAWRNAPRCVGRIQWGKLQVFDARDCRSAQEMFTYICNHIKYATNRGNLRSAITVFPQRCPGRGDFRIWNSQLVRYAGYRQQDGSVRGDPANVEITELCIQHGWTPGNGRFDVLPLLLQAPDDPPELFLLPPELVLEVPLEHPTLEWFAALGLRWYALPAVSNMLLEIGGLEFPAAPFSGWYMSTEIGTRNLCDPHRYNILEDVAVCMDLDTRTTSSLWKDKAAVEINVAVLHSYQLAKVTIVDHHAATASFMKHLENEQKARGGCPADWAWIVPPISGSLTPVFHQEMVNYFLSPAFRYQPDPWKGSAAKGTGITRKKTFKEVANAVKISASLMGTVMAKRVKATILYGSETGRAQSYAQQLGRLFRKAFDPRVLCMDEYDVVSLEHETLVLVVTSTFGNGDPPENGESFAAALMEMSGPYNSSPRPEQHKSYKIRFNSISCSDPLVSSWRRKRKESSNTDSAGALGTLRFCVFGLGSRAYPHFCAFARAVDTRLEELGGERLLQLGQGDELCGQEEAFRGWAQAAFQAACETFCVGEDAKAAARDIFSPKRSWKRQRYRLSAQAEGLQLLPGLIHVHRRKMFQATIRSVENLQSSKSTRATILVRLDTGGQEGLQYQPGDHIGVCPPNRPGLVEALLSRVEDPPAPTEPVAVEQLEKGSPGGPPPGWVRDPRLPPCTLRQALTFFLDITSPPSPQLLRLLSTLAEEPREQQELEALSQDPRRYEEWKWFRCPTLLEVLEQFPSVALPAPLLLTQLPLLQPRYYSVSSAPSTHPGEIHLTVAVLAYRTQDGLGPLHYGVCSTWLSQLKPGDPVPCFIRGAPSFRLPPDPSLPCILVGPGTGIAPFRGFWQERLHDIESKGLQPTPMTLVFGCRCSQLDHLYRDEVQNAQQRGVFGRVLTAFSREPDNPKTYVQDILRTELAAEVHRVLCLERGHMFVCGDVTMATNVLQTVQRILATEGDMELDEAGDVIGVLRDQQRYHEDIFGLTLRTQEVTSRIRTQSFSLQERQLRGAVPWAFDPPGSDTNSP
measurement name: IC50

compound smiles	experimental target	IC50
Sc1nc2cc(Cl)ccc2o1	UniProt:P29474	> 50 µM

input: Returns the measured IC50 for the input molecule. Input: `O=c1[nH]c2cc(F)ccc2o1`
output: > 50 µM

input: Please do the same for `Cc1cccc2oc(=O)[nH]c12` as well.
output: > 50 µM
